Test: Substrate specificity of WNanoKAZ mutants, crude enzyme solution (Example 11)
Type: biochemical
Conditions: substrate CTZ, Int.
Method: DTT was added to the crude enzyme solution obtained in EXAMPLE 9 at a final concentration of 1 mM, and then allowed to stand in an ice-water bath over 8 hours or more. After 1 μL of the crude enzyme solution was added to 100 μL of 30 mM Tris-HCl (pH 7.6)-10 mM EDTA (Wako Pure Chemical Industries, Ltd.) containing 1 μg of coelenterazine (manufactured by JNC Corp.), a luminescence reaction was started. […] The maximum intensity of luminescence (Imax) was given as a relative luminescence activity (rlu). […]
# binarize Relative luminescence activity, CTZ, Int.: threshold 30 inclusive, high side Yes, low side No

INSERT INTO measurements (molecule, assigned_category) VALUES
  ('WNanoKAZ-K124Q: single amino acid-substituted WNanoKAZ mutant K124Q; SEQ ID NO: 12 (protein) FTLADFVGDWQQTAGYNQDQVLEQGGLSSLFQALGVSVTPIQKVVLSGENGLKADIHVIIPYEGLSGFQMGLIEMIFKVVYPVDDHHFKVILHYGTLVIDGVTPNMIDYFGRPYEGIAVFDGKQITVTGTLWNGNKIIDERLINPDGSLLFRVTINGVTGWRLCERILA', 'Yes'),
  ('WNanoKAZ-R166N: single amino acid-substituted WNanoKAZ mutant R166N; SEQ ID NO: 16 (protein) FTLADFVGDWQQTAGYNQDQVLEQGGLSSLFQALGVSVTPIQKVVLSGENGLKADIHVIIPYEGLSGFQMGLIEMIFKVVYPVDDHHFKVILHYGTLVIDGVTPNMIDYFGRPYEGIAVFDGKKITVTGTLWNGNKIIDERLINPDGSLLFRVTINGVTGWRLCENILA', 'Yes'),
  ('WNanoKAZ-I138Y: single amino acid-substituted WNanoKAZ mutant I138Y; SEQ ID NO: 14 (protein) FTLADFVGDWQQTAGYNQDQVLEQGGLSSLFQALGVSVTPIQKVVLSGENGLKADIHVIIPYEGLSGFQMGLIEMIFKVVYPVDDHHFKVILHYGTLVIDGVTPNMIDYFGRPYEGIAVFDGKKITVTGTLWNGNKIYDERLINPDGSLLFRVTINGVTGWRLCERILA', 'No'),
  ('WNanoKAZ-E115P: WNanoKAZ with substitution of proline for glutamic acid at position 115; SEQ ID NO: 10 (protein) FTLADFVGDWQQTAGYNQDQVLEQGGLSSLFQALGVSVTPIQKVVLSGENGLKADIHVIIPYEGLSGFQMGLIEMIFKVVYPVDDHHFKVILHYGTLVIDGVTPNMIDYFGRPYPGIAVFDGKKITVTGTLWNGNKIIDERLINPDGSLLFRVTINGVTGWRLCERILA', 'No'),
  ('WNanoKAZ-V90I: single amino acid-substituted WNanoKAZ mutant, valine 90 back to isoleucine; SEQ ID NO: 8 (protein) FTLADFVGDWQQTAGYNQDQVLEQGGLSSLFQALGVSVTPIQKVVLSGENGLKADIHVIIPYEGLSGFQMGLIEMIFKVVYPVDDHHFKIILHYGTLVIDGVTPNMIDYFGRPYEGIAVFDGKKITVTGTLWNGNKIIDERLINPDGSLLFRVTINGVTGWRLCERILA', 'Yes'),
  ('WNanoKAZ: chimeric protein: positions 1-82 of native KAZ and 83-169 of nanoKAZ; SEQ ID NO: 6; I90V, P115E, Q124K, Y138I, N166R (protein, chimeric protein: positions 1-82 of native KAZ and 83-169 of nanoKAZ; I90V, P115E, Q124K, Y138I, N166R) FTLADFVGDWQQTAGYNQDQVLEQGGLSSLFQALGVSVTPIQKVVLSGENGLKADIHVIIPYEGLSGFQMGLIEMIFKVVYPVDDHHFKVILHYGTLVIDGVTPNMIDYFGRPYEGIAVFDGKKITVTGTLWNGNKIIDERLINPDGSLLFRVTINGVTGWRLCERILA', 'Yes');
